Target: Fuc(a1-2)Gal(b1-3)[Fuc(a1-4)]GlcNAc(b1-3)[Gal(b1-4)GlcNAc(b1-6)]Gal(b1-4)Glc
Test: glycan array binding signal (z-score within array); higher = stronger binding
Details: glycan notation: IUPAC condensed, linker removed
About 410 targets per protein were measured; listed, in parts, are those with the strongest signals and a random draw of the rest.
RECORDED_METRIC: glycan array binding signal (z-score)

Task item: Look up and report measured glycan array binding signal (z-score) for this entry: Cohesin-marm-DC-ASGPR-CRD (protein) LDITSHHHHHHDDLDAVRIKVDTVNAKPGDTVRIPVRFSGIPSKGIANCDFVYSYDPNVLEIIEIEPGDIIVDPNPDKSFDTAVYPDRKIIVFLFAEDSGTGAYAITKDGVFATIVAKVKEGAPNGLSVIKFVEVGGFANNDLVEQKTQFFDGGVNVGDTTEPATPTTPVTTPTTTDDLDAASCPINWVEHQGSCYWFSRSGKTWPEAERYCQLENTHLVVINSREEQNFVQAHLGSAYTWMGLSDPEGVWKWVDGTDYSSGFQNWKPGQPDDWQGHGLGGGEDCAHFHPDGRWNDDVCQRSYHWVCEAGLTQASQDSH
Reply: -0.444

Task item: Look up glycan array binding signal (z-score) of CPA (Cicer arietinum) (protein) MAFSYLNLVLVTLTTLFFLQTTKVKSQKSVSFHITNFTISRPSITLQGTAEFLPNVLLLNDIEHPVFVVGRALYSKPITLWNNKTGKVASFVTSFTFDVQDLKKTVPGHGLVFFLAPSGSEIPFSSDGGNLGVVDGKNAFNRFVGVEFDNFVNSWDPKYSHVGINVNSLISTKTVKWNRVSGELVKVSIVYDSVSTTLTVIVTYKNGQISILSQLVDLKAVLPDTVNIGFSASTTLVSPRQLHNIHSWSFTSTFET and report it.
Reply: -0.072

FYI, the data here is from the supplement of paper PMC8728848.
